- Test details: Solubility, automated shake flask method with UV quantitation
- Format: physicochemical
- Setup conditions: simulated gastric fluid, thermodynamic from solid; 0.1N HCl, 4 h, room temperature
Measured property: solubility at 4 h

Request: Specify reported solubility at 4 h for the compound shown: CO[C@H]1COCC[C@H]1NC1CCN(C(=O)c2ncnc(NC[C@H]3CCC[C@@H](c4ccc(C)cc4)O3)c2C)CC1.O=C(O)CC(O)(CC(=O)O)C(=O)O [citrate salt 1]
Result: > 1000 µg/mL

----------
- Test details: Solubility, automated shake flask method with UV quantitation
- Assay type: physicochemical
- Setup conditions: aqueous buffer, thermodynamic from solid; KH2PO4-buffer pH 7.4, 4 h, room temperature
Measured property: solubility at 4 h

Request: Specify reported solubility at 4 h for the molecule shown: CO[C@H]1COCC[C@H]1NC1CCN(C(=O)c2ncnc(NC[C@H]3CCC[C@@H](c4ccc(C)cc4)O3)c2C)CC1.O=C(O)CC(O)(CC(=O)O)C(=O)O [citrate salt 1]
Result: > 1000 µg/mL
